From: patent US10870652B2

Parameter IC50, tested on BTK (Homo sapiens), listed per item.
Sequence (Q06187 whole entry): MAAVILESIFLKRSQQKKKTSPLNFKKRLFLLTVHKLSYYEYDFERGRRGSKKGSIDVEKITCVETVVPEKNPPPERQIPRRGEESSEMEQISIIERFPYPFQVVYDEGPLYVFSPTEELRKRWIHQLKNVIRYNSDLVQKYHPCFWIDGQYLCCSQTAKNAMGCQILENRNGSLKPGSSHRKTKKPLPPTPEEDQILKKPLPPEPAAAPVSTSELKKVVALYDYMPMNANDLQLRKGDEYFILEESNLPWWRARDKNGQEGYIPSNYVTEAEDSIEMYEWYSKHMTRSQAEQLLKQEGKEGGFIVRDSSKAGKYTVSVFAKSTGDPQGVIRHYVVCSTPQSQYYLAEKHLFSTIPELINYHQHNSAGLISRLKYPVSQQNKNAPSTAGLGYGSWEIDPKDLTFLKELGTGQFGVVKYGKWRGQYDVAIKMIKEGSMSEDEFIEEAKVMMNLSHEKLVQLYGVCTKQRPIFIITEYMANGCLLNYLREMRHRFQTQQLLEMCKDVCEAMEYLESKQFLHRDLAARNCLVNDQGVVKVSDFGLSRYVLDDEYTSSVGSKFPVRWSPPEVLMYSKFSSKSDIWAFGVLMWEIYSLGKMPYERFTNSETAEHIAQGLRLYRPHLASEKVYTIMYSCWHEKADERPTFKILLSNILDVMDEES

In the examples that follow, each entry is paired with its recorded IC50.
Short answer on BTK (Homo sapiens) for C=CC(=O)N1CCC2(CC1)CC(n1nc(-c3ccc(Oc4ccccc4)cc3)c3cncnc31)C2 [Compound A54] , IC50: > 0.5 µM

Short answer on BTK (Homo sapiens) for CC#CC(=O)Nc1ccccc1Cn1nc(-c2ccc(Oc3ccccc3)cc2)c2cncnc21 [Compound A61] , IC50: > 0.5 µM

Short answer on BTK (Homo sapiens) for CC#CC(=O)N1CC[C@@H](Cn2nc(-c3ccc(Oc4ccccc4)cc3)c3cncnc32)C1 [Compound A63] , IC50: 0.1 to 0.5 µM

Short answer on BTK (Homo sapiens) for C=CC(=O)N[C@H]1CC[C@H](n2nc(-c3ccc(Oc4ccccc4)cc3)c3cncnc32)CC1 [Compound A56] , IC50: > 0.5 µM

Short answer on BTK (Homo sapiens) for C=CC(=O)N1CCC[C@@H](n2nc(-c3ccc(Oc4ccccc4)cc3F)c3cncnc32)C1 [Compound A2] , IC50: < 0.1 µM

Continuing:
Short answer on BTK (Homo sapiens) for COCC#CC(=O)N1CC2(CC(n3nc(-c4ccc(Oc5ccccc5)cc4)c4cncnc43)C2)C1 [Compound A79] , IC50: < 0.1 µM

Short answer on BTK (Homo sapiens) for C=CC(=O)N1CCC[C@@H](n2nc(-c3ccc(Oc4ccccc4)cc3F)c3cnccc32)C1 [Compound A24] , IC50: < 0.1 µM

Short answer on BTK (Homo sapiens) for CC#CC(=O)N1CC[C@H](Cn2nc(-c3ccc(Oc4ccccc4)cc3)c3cncnc32)C1 [Compound A64] , IC50: < 0.1 µM

Short answer on BTK (Homo sapiens) for C=CC(=O)N1CCC[C@H]1Cn1nc(-c2ccc(Oc3cccc(CC)c3)cc2)c2cncnc21 [Compound A46] , IC50: < 0.1 µM

Short answer on BTK (Homo sapiens) for C=CC(=O)N[C@H]1C[C@H](n2nc(-c3ccc(Oc4ccccc4)cc3)c3cncnc32)C1 [Compound A55] , IC50: 0.1 to 0.5 µM

Short answer on BTK (Homo sapiens) for CC#CC(=O)N1CCC(n2nc(-c3ccc(Oc4ccccc4)cc3)c3cncnc32)CC1 [Compound A59] , IC50: 0.1 to 0.5 µM

Short answer on BTK (Homo sapiens) for C=CC(=O)N1CCC[C@@H](n2nc(-c3ccc(Oc4ccccc4)cc3)c3cncc(C#N)c32)C1 [Compound A72] , IC50: < 0.1 µM

Short answer on BTK (Homo sapiens) for C=CC(=O)N1CC[C@H]1Cn1nc(-c2ccc(Oc3ccccc3)cc2)c2cncnc21 [Compound A51] , IC50: < 0.1 µM

Short answer on BTK (Homo sapiens) for C=CC(=O)N1CC[C@@H](n2nc(-c3ccc(Oc4ccccc4)cc3)c3cncc(C#N)c32)C1 [Compound A73] , IC50: < 0.1 µM

Short answer on BTK (Homo sapiens) for C=CC(=O)N1CCC[C@@]1(C)Cn1nc(-c2ccc(Oc3ccccc3)cc2F)c2cncnc21 [Compound A52] , IC50: < 0.1 µM

Short answer on BTK (Homo sapiens) for C=C(C)C(=O)N1CCC[C@@H](n2nc(-c3ccc(Oc4ccccc4)cc3)c3cncnc32)C1 [Compound A21] , IC50: > 0.5 µM

Short answer on BTK (Homo sapiens) for CC#CC(=O)N1CC[C@@H]1Cn1nc(-c2ccc(Oc3ccccc3)cc2)c2cncnc21 [Compound A67] , IC50: 0.1 to 0.5 µM

Short answer on BTK (Homo sapiens) for CC#CC(=O)N1CC(Cn2nc(-c3ccc(Oc4ccccc4)cc3)c3cncnc32)C1 [Compound A58] , IC50: > 0.5 µM

Short answer on BTK (Homo sapiens) for O=C(C#CCN1CCCCC1)N1CC2(CC(n3nc(-c4ccc(Oc5ccccc5)cc4)c4cncnc43)C2)C1 [Compound A77] , IC50: < 0.1 µM

Short answer on BTK (Homo sapiens) for CC#CC(=O)N1CCC2(CC1)CC(n1nc(-c3ccc(Oc4ccccc4)cc3)c3cncnc31)C2 [Compound A68] , IC50: > 0.5 µM

Short answer on BTK (Homo sapiens) for C=CC(=O)N1CCC(n2nc(-c3ccc(Oc4ccccc4)cc3)c3cncnc32)CC1 [Compound A36] , IC50: 0.1 to 0.5 µM

Short answer on BTK (Homo sapiens) for CC#CC(=O)N1CCC[C@@H]1Cn1nc(-c2ccc(Oc3ccccc3)cc2)c2cncnc21 [Compound A65] , IC50: 0.1 to 0.5 µM

Short answer on BTK (Homo sapiens) for C=CC(=O)N1CCC[C@@H](n2nc(-c3ccc(Oc4ccccc4)cc3)c3cncnc32)C1 [Compound A9] , IC50: < 0.1 µM
